EC50: recorded values
- Test system: multiple myeloma cell line NCI-H929
- method_summary: H929 Cell Viability Assay
- Assay type: cell-based, human
- particulars: Homo sapiens, NCI-H929, 48 h, NCI-H929 cells, Celltiter-Glo
Unit µM implied. Number only.

• [2H]c1cc([2H])cc(N2CCC[C@@H]2c2csc(NC(=O)c3cccn3Cc3ccnc(F)c3)n2)c1 [Compound A95] = 0.59
• O=C(Nc1nc([C@H]2CCCN2c2ccc(O[C@@H]3CCCNC3)cc2)cs1)c1cccn1Cc1ccnc(F)c1 [Compound A87] = 6.31
• O=C(Nc1nc([C@H]2CCCN2c2ccc(C3CCNCC3)cc2)cs1)c1cccn1Cc1ccncc1 [Compound A51] = 4.95

Would you kindly look at the next entry?
Request: Test system multiple myeloma cell line NCI-H929; read-out EC50; what value for CC(C)c1ccc(/C=C/c2csc(NC(=O)c3cccn3CC3CCOCC3)n2)nc1 [Compound D6] ?
Result: 8.68
